Recorded values, source patent US20080064668A1.

test system: HT 1376; assay: Proliferation assay using bladder cancer cell lines, HT1376; format: cell-based, human; conditions: 72 h culture, CyQuant proliferation assay
METRIC: IC50 (µM)
Give your result in µM as a bare value.

// IC50 value for CC(C/C=C\C(O)(C(F)(F)F)C(F)(F)F)C1=CCC2C(=CC=C3CC(O)CC(O)C3)CCCC12C (stereo not shown) [(1), reference compound] : 56

---

system: RT112; assay: Proliferation assay using bladder cancer cell lines, RT112; type: cell-based, human; details: Homo sapiens, RT-112, 72 h, 72 h culture, CyQuant proliferation assay
METRIC: pIC50
// pIC50 here means minus log10 of the molar concentration (mol/L)

Examples with answers:
Readout pIC50 for C=C1/C(=C\C=C2/CCC[C@]3(C)C(C(C)C/C=C/C(C)(C)O)=CCC23)CC(OC(C)=O)C[C@@H]1OC(C)=O (stereo partly drawn) [(9)] , test system RT112, was 4.85

Readout pIC50 for C=C1/C(=C\C=C2/CCC[C@]3(C)C(C(C)CC#CC(O)(C(F)(F)F)C(F)(F)F)=CCC23)CC(OC(C)=O)C[C@@H]1OC(C)=O (stereo partly drawn) [(14)] , test system RT112, was 4.59

Then there is this compound:
Readout pIC50 for C=C1/C(=C\C=C2/CCC[C@@]3(C)C2CCC3C2(CC#CC(C)(C)O)CC2)CC(OC(C)=O)C[C@@H]1OC(C)=O (stereo partly drawn) [(29)] , test system RT112, was 5.10

---

Tested on: RT112
Assay: Proliferation assay using bladder cancer cell lines, RT112
Format: cell-based, human
Conditions: Homo sapiens, RT-112; 72 h culture, CyQuant proliferation assay
Procedure: Bladder cancer cell lines (T24, RT112, HT1376 and RT4 are human bladder cancer cell lines; NHEK are normal human keratinocytes) were obtained from the European Collection of Cell Cultures (Salisbury, UK). […] After a further 72 h of culture, cell proliferation was measured using a fluorescence-based proliferation assay kit. […] The IC50 was calculated from the regression curve of the titration data.
METRIC: IC50 (µM)
Give your result in µM as a bare value.

Readout IC50 for C=C1/C(=C\C=C2/CCC[C@]3(C)[C@@H]([C@H](C)CCCC(C)(C)O)CC[C@@H]23)C[C@@H](O)C[C@@H]1O [Calcitriol, 1,25-dihydroxycholecalciferol, reference compound] , test system RT112, was 19

---

Test system: RT112
Assay: Proliferation assay using bladder cancer cell lines, RT112
Format: cell-based, human
Details: Homo sapiens, RT-112, 72 h, 72 h culture, CyQuant proliferation assay
Procedure: Bladder cancer cell lines (T24, RT112, HT1376 and RT4 are human bladder cancer cell lines; NHEK are normal human keratinocytes) were obtained from the European Collection of Cell Cultures (Salisbury, UK). […] After a further 72 h of culture, cell proliferation was measured using a fluorescence-based proliferation assay kit. […] The IC50 was calculated from the regression curve of the titration data.
# if measured IC50 < 20 µM: condition met  # else: condition not met

In the record for C=C1/C(=C\C=C2/CCC[C@]3(C)C(C(C)CC#CC(C)(C)O)=CCC23)CC(OC(C)=O)C[C@@H]1OC(C)=O (stereo partly drawn) [(7)] , is IC50 less than 20 µM?
condition met

---
In the record for C=C1/C(=C\C=C2/CCC[C@@]3(C)C2CCC3C(C)CC#CC(C)(C)O)CC(OC(C)=O)C[C@@H]1OC(C)=O (stereo partly drawn) [(41)] , is IC50 less than 20 µM?
condition met

In the record for CC(=O)OC1C/C(=C/C=C2\CCC[C@]3(C)C(C(C)CC#CC(O)(C(F)(F)F)C(F)(F)F)=CCC23)C[C@@H](OC(C)=O)C1 (stereo partly drawn) [(4)] , is IC50 less than 20 µM?
condition met

In the record for C=C1/C(=C\C=C2/CCC[C@]3(C)C(C4(CCCC(C)(C)O)CC4)=CCC23)CC(OC(C)=O)C[C@@H]1OC(C)=O (stereo partly drawn) [(39)] , is IC50 less than 20 µM?
condition not met

In the record for CC(=O)OC1C/C(=C/C=C2\CCC[C@@]3(C)C2CCC3C2(C/C=C\C(O)(C(F)(F)F)C(F)(F)F)CC2)C[C@@H](OC(C)=O)C1 (stereo partly drawn) [(33)] , is IC50 less than 20 µM?
condition met

In the record for CC(=O)OC1C/C(=C/C=C2\CCC[C@@]3(C)C2CCC3C2(CC#CC(OC(C)=O)(C(F)(F)F)C(F)(F)F)CC2)C[C@@H](OC(C)=O)C1 (stereo partly drawn) [(26)] , is IC50 less than 20 µM?
condition met

---

Tested on: RT4
Assay: Proliferation assay using bladder cancer cell lines, RT4
Type: cell-based, human
Conditions: 72 h culture, CyQuant proliferation assay
Method: Bladder cancer cell lines (T24, RT112, HT1376 and RT4 are human bladder cancer cell lines; NHEK are normal human keratinocytes) were obtained from the European Collection of Cell Cultures (Salisbury, UK). […] After a further 72 h of culture, cell proliferation was measured using a fluorescence-based proliferation assay kit. […] The IC50 was calculated from the regression curve of the titration data.
METRIC: IC50 (µM)
Give your result in µM as a bare value.

// IC50 value for CC(C/C=C\C(O)(C(F)(F)F)C(F)(F)F)C1=CCC2C(=CC=C3CC(O)CC(O)C3)CCCC12C (stereo not shown) [(1), reference compound] : 20

---

tested on: RT112; test: Proliferation assay using bladder cancer cell lines, RT112; assay type: cell-based, human; details: 72 h culture, CyQuant proliferation assay
METRIC: IC50 (µM)
Give your result in µM as a bare value.

// IC50 value for CC(C/C=C\C(O)(C(F)(F)F)C(F)(F)F)C1=CCC2C(=CC=C3CC(O)CC(O)C3)CCCC12C (stereo not shown) [(1), reference compound] : 24

---

test system: RT4; assay: Proliferation assay using bladder cancer cell lines, RT4; assay type: cell-based, human; settings: Homo sapiens, RT-4; 72 h culture, CyQuant proliferation assay
METRIC: IC50 (µM)
Give your result in µM as a bare value.

Readout IC50 for C=C1/C(=C\C=C2/CCC[C@]3(C)[C@@H]([C@H](C)CCCC(C)(C)O)CC[C@@H]23)C[C@@H](O)C[C@@H]1O [Calcitriol, 1,25-dihydroxycholecalciferol, reference compound] , test system RT4, was 45

---

This listing pairs molecules with measured MTD.
test: MTD in CD1 mouse (highest non-hypercalcemic dose); settings: in vivo
Give your result in mg/kg as a bare value.

Examples with answers:
// MTD value for CC(=O)OC1C/C(=C/C=C2\CCC[C@]3(C)C(C(C)CC#CC(C)(C)O)=CCC23)C[C@@H](OC(C)=O)C1 (stereo partly drawn) [(20)] : 0.03

// MTD value for C=C1/C(=C\C=C2/CCC[C@]3(C)C(C(C)C/C=C/C(C)(C)O)=CCC23)CC(OC(C)=O)C[C@@H]1OC(C)=O (stereo partly drawn) [(9)] : 0.003

// MTD value for CC(=O)OC1C/C(=C/C=C2\CCC[C@@]3(C)C2CCC3C2(CC#CC(O)(C(F)(F)F)C(F)(F)F)CC2)C[C@@H](OC(C)=O)C1 (stereo partly drawn) [(27)] : 0.01

// MTD value for C=C1/C(=C\C=C2/CCC[C@]3(C)C(C(C)CC#CC(C)(C)O)=CCC23)CC(OC(C)=O)C[C@@H]1OC(C)=O (stereo partly drawn) [(7)] : 0.01

// MTD value for C=C1/C(=C\C=C2/CCC[C@]3(C)C(C(C)CCCC(C)(C)O)=CCC23)CC(OC(C)=O)C[C@@H]1OC(C)=O (stereo partly drawn) [(11)] : 0.001

// MTD value for CC(=O)OC1C/C(=C/C=C2\CCC[C@@]3(C)C2CCC3C2(CC#CC(OC(C)=O)(C(F)(F)F)C(F)(F)F)CC2)C[C@@H](OC(C)=O)C1 (stereo partly drawn) [(26)] : 0.01

// MTD value for C=C1/C(=C\C=C2/CCC[C@@]3(C)C2CCC3C(C)CC#CC(C)(C)O)CC(OC(C)=O)C[C@@H]1OC(C)=O (stereo partly drawn) [(41)] : 0.001

// MTD value for C=C1/C(=C\C=C2/CCC[C@@]3(C)C2CCC3C2(CCCC(C)(C)O)CC2)C[C@@H](OC(C)=O)C[C@@H]1OC(C)=O (stereo partly drawn) [(35)] : 0.03

// MTD value for C=C1/C(=C\C=C2/CCC[C@]3(C)[C@@H]([C@H](C)CCCC(C)(C)O)CC[C@@H]23)C[C@@H](O)C[C@@H]1O [Calcitriol, 1,25-dihydroxycholecalciferol, reference compound] : 0.001

// MTD value for C=C1/C(=C\C=C2/CCC[C@]3(C)C(C(C)CC#CC(O)(C(F)(F)F)C(F)(F)F)=CCC23)CC(OC(C)=O)C[C@@H]1OC(C)=O (stereo partly drawn) [(14)] : 0.01

---
// MTD value for CC(=O)OC1C/C(=C/C=C2\CCC[C@]3(C)C(C(C)CCCC(C)(C)O)=CCC23)C[C@@H](OC(C)=O)C1 (stereo partly drawn) [(18)] : 0.003

// MTD value for C=C1/C(=C\C=C2/CCC[C@@]3(C)C2CCC3C2(CC#CC(C)(C)O)CC2)CC(OC(C)=O)C[C@@H]1OC(C)=O (stereo partly drawn) [(29)] : 0.03
